The values you see were collected from ChEMBL document CHEMBL4177690.

Would you kindly list IC50 for each of these compounds?
# assayed system: Cytochrome P450 1A1 (Homo sapiens, UniProt P04798)
# Sequence (P04798 whole entry): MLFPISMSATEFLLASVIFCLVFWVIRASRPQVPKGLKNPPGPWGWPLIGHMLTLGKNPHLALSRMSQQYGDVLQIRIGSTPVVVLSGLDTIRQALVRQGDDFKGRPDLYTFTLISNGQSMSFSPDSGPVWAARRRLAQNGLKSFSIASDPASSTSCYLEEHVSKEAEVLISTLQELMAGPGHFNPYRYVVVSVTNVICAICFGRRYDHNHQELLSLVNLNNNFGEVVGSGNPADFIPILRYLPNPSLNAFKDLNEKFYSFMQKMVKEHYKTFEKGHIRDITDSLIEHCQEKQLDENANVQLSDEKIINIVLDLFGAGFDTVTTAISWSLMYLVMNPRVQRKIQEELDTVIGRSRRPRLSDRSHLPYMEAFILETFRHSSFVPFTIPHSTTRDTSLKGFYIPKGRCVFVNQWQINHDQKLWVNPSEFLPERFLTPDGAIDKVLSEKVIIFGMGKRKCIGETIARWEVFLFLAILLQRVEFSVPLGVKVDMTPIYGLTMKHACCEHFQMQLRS
# assay procedure: Inhibition of human CYP1A1 expressed in yeast microsomal membranes using 7-ethoxyresorufin as substrate measured after 10 mins by fluorescence assay
# Assay type: cell membranes
# value in nM; strip the unit string

Fill in: IC50 of CCOc1cc(/C=C/C(=O)c2ccncc2)cc(OC)c1OCC is ___
65

Check COc1ccc(/C=C/C(=O)c2ccncc2)cc1OC too.
380

Check COc1cccc(/C=C/C(=O)c2ccncc2)c1 too.
590

Check COc1cc(/C=C/C(=O)c2ccncc2)cc(OC)c1 too.
180

Check COc1ccc(/C=C/C(=O)c2ccncc2)c(OC)c1OC too.
1410

Check O=C(/C=C/c1ccc2c(c1)OCO2)c1ccncc1 too.
1120

Check CCOc1c(OC)cc(/C=C/C(=O)c2ccncc2)cc1OC too.
230

Check COc1ccc(/C=C/C(=O)c2ccncc2)cc1 too.
6310
